- assay: in vivo
- assaySetup: mouse, po, 3000 mg/kg
Task for the reader: assign each of the following compounds its reported LD50 at 14 days.

These recorded examples may help you get a feel for the data.
Cc1nc(-c2ccc(OCC(C)C)c(C#N)c2)sc1C(=O)NCC(=O)O : ≥ 3000 mg/kg
Cc1nc(-c2ccc(OCC(C)C)c(C#N)c2)sc1C(=O)NC1C(O)OC(CO)C(O)C1O (stereo not shown) : ≥ 3000 mg/kg
Cc1nc(-c2ccc(OCC(C)C)c(C#N)c2)sc1C(=O)OCCN(C)CCO : ≥ 3000 mg/kg

Kindly consider the entry below.
Sure, the documented LD50 at 14 days for Cc1nc(-c2ccc(OCC(C)C)c(C#N)c2)sc1C(=O)OC(C)Cl (stereo not shown) is ≥ 3000 mg/kg

====

- Test system: ICR mice
- assaySetup: ig 3000 mg/kg, 10 mice
observable: Number of dead animals
Answers are plain numbers.

Cc1nc(-c2ccc(OCC(C)C)c(C#N)c2)sc1C(=O)NCC(=O)O [Compound F-2A] : 0
Cc1nc(-c2ccc(OCC(C)C)c(C#N)c2)sc1C(=O)NC1C(O)OC(CO)C(O)C1O (stereo not shown) [Compound F-4A] : 0
Cc1nc(-c2ccc(OCC(C)C)c(C#N)c2)sc1C(=O)NC(C)C(=O)O (stereo not shown) [Compound F-2B] : 0
Cc1nc(-c2ccc(OCC(C)C)c(C#N)c2)sc1C(=O)OCCN(C)CCO [Compound F-3A] : 0
Cc1nc(-c2ccc(OCC(C)C)c(C#N)c2)sc1C(=O)OCCO [Compound F-1A] : 0
Cc1nc(-c2ccc(OCC(C)C)c(C#N)c2)sc1C(=O)NC(CC(=O)O)C(=O)O (stereo not shown) [Compound F-2C] : 0

Respectfully, I request Number of dead animals for each entry included below.
1. Cc1nc(-c2ccc(OCC(C)C)c(C#N)c2)sc1C(=O)N1CCC[C@H]1C(=O)O [Compound F-2D]
2. Cc1nc(-c2ccc(OCC(C)C)c(C#N)c2)sc1C(=O)OCCCN(C)CCCO [Compound F-3B]
3. Cc1nc(-c2ccc(OCC(C)C)c(C#N)c2)sc1C(=O)OCC(O)CO (stereo not shown) [Compound F-1B]
4. Cc1nc(-c2ccc(OCC(C)C)c(C#N)c2)sc1C(=O)OC(C)Cl (stereo not shown) [Compound F-1C]

1. 0
2. 0
3. 0
4. 0

Attribution: patent US11401247B2
